The values you see were collected from the supplement of paper PMC10567573.

B1: OAS1 (parent)
chain: LTVYAWERGSMKTHFNTAQGFRTV

Variants of: B1
Assay: protein stability index of a GFP-peptide fusion (GPS, HEK-293T) (PSI 1-6); higher = more stable;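 note: lentivirally expressed fusions sorted by FACS into six bins by GFP to DsRed ratio, PSI derived from sequencing read proportions per bin multiplied by bin number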
Settings: c terminus: a fixed tail appended
For each entry below, report its protein stability index value.
// response body must contain only the number

Prompt: Need protein stability index, item S10H
Response: 2.71

Prompt: Need protein stability index, item V3A
Response: 2.24

Prompt: Need protein stability index, item G9R
Response: 2.02

Prompt: Need protein stability index, item R22L
Response: 3.28

Prompt: Need protein stability index, item M11Q
Response: 2.14

Prompt: Need protein stability index, item T2Q
Response: 1.86

Prompt: Need protein stability index, item Q19T
Response: 2.88

Prompt: Need protein stability index, item N16Q
Response: 2.83

Prompt: Need protein stability index, item W6M
Response: 3.17

Prompt: Need protein stability index, item E7R
Response: 2.05

Prompt: Need protein stability index, item W6F
Response: 2.89

Prompt: Need protein stability index, item H14Y
Response: 2.75

Prompt: Need protein stability index, item S10C
Response: 2.82

Prompt: Need protein stability index, item Q19E
Response: 2.52

Prompt: Need protein stability index, item R8Y
Response: 3.38

Prompt: Need protein stability index, item R22P
Response: 3.8

Prompt: Need protein stability index, item S10N
Response: 2.53

Prompt: Need protein stability index, item F15C
Response: 1.96

Prompt: Need protein stability index, item V3M
Response: 2.16

Prompt: Need protein stability index, item R8E
Response: 2.4

Prompt: Need protein stability index, item H14D
Response: 2.33

Prompt: Need protein stability index, item L1P
Response: 2.14
